# assay-name: AUC(0 to t) in Sprague-Dawley rat at 10 mg/kg, po measured upto 24 hrs by LC-MS/MS analysis
# Type: ADME, organism-based
# condition-notes: in vivo
Property: AUCt; scope: individual compounds

{"columns": ["compound", "AUCt (h/ng/mL)"],
 "data": [
  ["Cc1cn(C2=CCC3C4CC=C5C[C@@H](NC(=O)c6ccncc6)CC[C@]5(C)C4CC[C@]23C)cn1 (some centres undefined)", 24800],
  ["Cc1cn(C2=CCC3C4CC=C5C[C@@H](NC(=O)c6ccc(F)cc6F)CC[C@]5(C)C4CC[C@]23C)cn1 (some centres undefined)", 22542],
  ["Cc1cn(C2=CCC3C4CC=C5C[C@@H](NC(=O)c6ccc(F)cc6)CC[C@]5(C)C4CC[C@]23C)cn1.Cl (some centres undefined)", 84338],
  ["Cc1cn(C2=CCC3C4CC=C5C[C@@H](NC(=O)c6ccc(F)cc6)CC[C@]5(C)C4CC[C@]23C)cn1 (some centres undefined)", 68872]
]}

---

# assay-name: Cmax in dog at 2 mg/kg, iv measured upto 24 hrs by LC-MS/MS analysis
# Type: ADME, organism-based, Canis lupus familiaris
# Parameters: time < 24 hrs, dose 2 mg/kg, route iv
# condition-notes: in vivo

{"columns": ["compound", "Cmax (ng/mL)"],
 "data": [
  ["Cc1cn(C2=CCC3C4CC=C5C[C@@H](NC(=O)c6ccc(F)cc6)CC[C@]5(C)C4CC[C@]23C)cn1.Cl (stereo partly specified)", 1860]
]}

---

# assay-name: Half life in Sprague-Dawley rat at 5 mg/kg, iv measured upto 24 hrs by LC-MS/MS analysis
# Format: ADME, organism-based
# condition-notes: in vivo
outcome-measure: half-life

{"columns": ["compound", "outcome-measure", "recorded-value"],
 "data": [
  ["Cc1cn(C2=CCC3C4CC=C5C[C@@H](NC(=O)c6ccc(F)cc6)CC[C@]5(C)C4CC[C@]23C)cn1.Cl (stereo partly specified)", "half-life", "6.39 h"]
]}

---

# study-target: Estrogen receptor (Homo sapiens, UniProt P03372)
# Sequence (P03372 whole entry): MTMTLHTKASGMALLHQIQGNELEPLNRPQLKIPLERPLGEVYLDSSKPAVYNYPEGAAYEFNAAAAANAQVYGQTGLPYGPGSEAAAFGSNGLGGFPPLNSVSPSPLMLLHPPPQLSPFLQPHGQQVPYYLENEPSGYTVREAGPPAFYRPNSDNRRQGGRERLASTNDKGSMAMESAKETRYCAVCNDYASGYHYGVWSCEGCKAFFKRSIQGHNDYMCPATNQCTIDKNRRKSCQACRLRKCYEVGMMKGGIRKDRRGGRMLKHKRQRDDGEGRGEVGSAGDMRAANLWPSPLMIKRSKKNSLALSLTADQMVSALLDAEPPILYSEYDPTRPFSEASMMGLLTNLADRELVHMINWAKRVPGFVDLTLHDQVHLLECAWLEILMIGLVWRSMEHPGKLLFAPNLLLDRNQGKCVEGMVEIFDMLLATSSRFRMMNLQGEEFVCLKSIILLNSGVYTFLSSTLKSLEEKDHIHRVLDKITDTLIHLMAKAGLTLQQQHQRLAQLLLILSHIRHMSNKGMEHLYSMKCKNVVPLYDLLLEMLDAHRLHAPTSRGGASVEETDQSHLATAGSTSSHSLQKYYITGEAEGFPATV
outcome-measure: IC50 (nM)

{"columns": ["compound", "recorded-value"],
 "data": [
  ["Cc1cn(C2=CCC3C4CC=C5C[C@@H](NC(=O)c6ccc(F)cc6)CC[C@]5(C)C4CC[C@]23C)cn1 (stereo partly specified)", 103]
]}

---

# study-target: Cytochrome P450 3A4 (Homo sapiens)
# Sequence (P08684 whole entry): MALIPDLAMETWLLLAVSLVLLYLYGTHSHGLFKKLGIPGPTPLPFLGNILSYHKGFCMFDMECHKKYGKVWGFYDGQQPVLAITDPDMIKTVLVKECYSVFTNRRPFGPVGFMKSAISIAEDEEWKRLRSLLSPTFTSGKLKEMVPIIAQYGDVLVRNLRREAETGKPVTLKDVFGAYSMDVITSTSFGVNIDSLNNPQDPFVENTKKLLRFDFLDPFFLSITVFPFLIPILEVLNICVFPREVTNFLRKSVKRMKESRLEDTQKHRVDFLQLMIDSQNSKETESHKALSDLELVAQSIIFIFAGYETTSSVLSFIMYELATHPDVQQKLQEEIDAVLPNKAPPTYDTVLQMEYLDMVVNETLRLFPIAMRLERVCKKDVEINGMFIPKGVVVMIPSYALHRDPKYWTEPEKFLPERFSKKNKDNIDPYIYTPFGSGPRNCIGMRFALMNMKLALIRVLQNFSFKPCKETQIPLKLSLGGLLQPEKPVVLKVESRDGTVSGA
# assay-name: Inhibition of CYP3A4 (unknown origin) using testosterone as substrate
# Assay type: ADME
pIC50: −log10 of the molar value.

{"columns": ["compound", "pIC50"],
 "data": [
  ["Cc1cn(C2=CCC3C4CC=C5C[C@@H](NC(=O)c6ccc(F)cc6)CC[C@]5(C)C4CC[C@]23C)cn1 (stereo partly specified)", 6.09]
]}

---

# assay-name: Cmax in Sprague-Dawley rat at 5 mg/kg, iv measured upto 24 hrs by LC-MS/MS analysis
# Type: ADME, organism-based
# Design: dose 5 mg/kg, time < 24 hrs, route iv
# condition-notes: in vivo
outcome-measure: Cmax

{"columns": ["compound", "outcome-measure", "recorded-value"],
 "data": [
  ["Cc1cn(C2=CCC3C4CC=C5C[C@@H](NC(=O)c6ccc(F)cc6)CC[C@]5(C)C4CC[C@]23C)cn1.Cl (stereo partly specified)", "Cmax", "14300 ng/mL"]
]}

---

# Test system: LNCaP
# assay-name: Antiproliferative activity against human LNCaP cells incubated for 6 days by CellTiter-Glo assay
# Type: functional, cell-based
pIC50: −log10 of the molar value.
pIC50 for assorted compounds
outcome-measure: pIC50

{"columns": ["compound", "outcome-measure", "recorded-value"],
 "data": [
  ["C[C@]12CC[C@H](NC(=O)c3ccnnc3)CC1=CCC1C2CC[C@]2(C)C(n3cnc(Br)c3)=CCC12 (stereo not given in full)", "pIC50", 5.83],
  ["Cc1cn(C2=CCC3C4CC=C5C[C@@H](NC(=O)c6ncccn6)CC[C@]5(C)C4CC[C@]23C)cn1 (stereo not given in full)", "pIC50", 5.62],
  ["C[C@]12CC[C@H](NC(=O)c3ccnnc3)CC1=CCC1C2CC[C@]2(C)C(n3cnc(C#N)c3)=CCC12 (stereo not given in full)", "pIC50", 6.33],
  ["CC(C)c1cn(C2=CCC3C4CC=C5C[C@@H](NC(=O)c6ccncc6)CC[C@]5(C)C4CC[C@]23C)cn1 (stereo not given in full)", "pIC50", 6.13],
  ["CC(C)c1cn(C2=CCC3C4CC=C5C[C@@H](NC(=O)c6ccnnc6)CC[C@]5(C)C4CC[C@]23C)cn1 (stereo not given in full)", "pIC50", 6.02],
  ["CC(C)(C)c1cn(C2=CCC3C4CC=C5C[C@@H](NC(=O)c6ccnnc6)CC[C@]5(C)C4CC[C@]23C)cn1 (stereo not given in full)", "pIC50", 5.95],
  ["CCc1cn(C2=CCC3C4CC=C5C[C@@H](NC(=O)c6ccnnc6)CC[C@]5(C)C4CC[C@]23C)cn1 (stereo not given in full)", "pIC50", 6.37],
  ["CC(=O)c1cn(C2=CCC3C4CC=C5C[C@@H](NC(=O)c6ccnnc6)CC[C@]5(C)C4CC[C@]23C)cn1 (stereo not given in full)", "pIC50", 5.86],
  ["C[C@]12CC[C@H](NC(=O)c3ccnnc3)CC1=CCC1C2CC[C@]2(C)C(n3cnc([N+](=O)[O-])c3)=CCC12 (stereo not given in full)", "pIC50", 6.38],
  ["Cc1cn(C2=CCC3C4CC=C5C[C@@H](NC(=O)c6ccncc6)CC[C@]5(C)C4CC[C@]23C)cn1 (stereo not given in full)", "pIC50", 6.47],
  ["Cc1cn(C2=CCC3C4CC=C5C[C@@H](NC(=O)c6ccc(S(C)(=O)=O)cc6)CC[C@]5(C)C4CC[C@]23C)cn1 (stereo not given in full)", "pIC50", 6.28],
  ["CC(C)(O)c1cn(C2=CCC3C4CC=C5C[C@@H](NC(=O)c6ccnnc6)CC[C@]5(C)C4CC[C@]23C)cn1 (stereo not given in full)", "pIC50", 5.33],
  ["COc1cn(C2=CCC3C4CC=C5C[C@@H](NC(=O)c6ccncc6)CC[C@]5(C)C4CC[C@]23C)cn1 (stereo not given in full)", "pIC50", 6.36],
  ["CCc1cn(C2=CCC3C4CC=C5C[C@@H](NC(=O)c6ccncc6)CC[C@]5(C)C4CC[C@]23C)cn1 (stereo not given in full)", "pIC50", 6.45],
  ["Cc1cn(C2=CCC3C4CC=C5C[C@@H](NC(=O)c6ccncn6)CC[C@]5(C)C4CC[C@]23C)cn1 (stereo not given in full)", "pIC50", 5.90]
]}

---

Known log10 of IC50 of a selection of compounds
# Tested on: LNCaP
# assay-name: Antiproliferative activity against human LNCaP cells incubated for 6 days by CellTiter-Glo assay
# Type: functional, cell-based
outcome-measure: log10 of IC50 (log10 of the value in nM)

{"columns": ["compound", "log10 of IC50"],
 "data": [
  ["Cc1cn(C2=CCC3C4CC=C5C[C@@H](NS(=O)(=O)c6ccc([N+](=O)[O-])cc6)CC[C@]5(C)C4CC[C@]23C)cn1 (stereo partly drawn)", 3.54],
  ["C[C@]12CC[C@H](NC(=O)c3ccnnc3)CC1=CCC1C2CC[C@]2(C)C(n3cnc(C(F)(F)F)c3)=CCC12 (stereo partly drawn)", 2.91],
  ["Cc1cn(C2=CCC3C4CC=C5C[C@@H](NS(=O)(=O)c6cccnc6)CC[C@]5(C)C4CC[C@]23C)cn1 (stereo partly drawn)", 3.32],
  ["Cc1cn(C2=CCC3C4CC=C5C[C@@H](NC(=O)c6ccc(F)cc6F)CC[C@]5(C)C4CC[C@]23C)cn1 (stereo partly drawn)", 2.51],
  ["C[C@]12CC[C@H](NC(=O)c3ccnnc3)CC1=CCC1C2CC[C@]2(C)C(n3cnc(F)c3)=CCC12 (stereo partly drawn)", 3.37],
  ["C[C@]12CC[C@H](NC(=O)c3ccnnc3)CC1=CCC1C2CC[C@]2(C)C(n3cnc(Cl)c3)=CCC12 (stereo partly drawn)", 2.78],
  ["Cc1cn(C2=CCC3C4CC=C5C[C@@H](NC(=O)c6ccc(F)cc6)CC[C@]5(C)C4CC[C@]23C)cn1 (stereo partly drawn)", 2.67]
]}
